target_system: T1, Extracellular domain of cyno PD1 (cPD1-ECD) (Macaca fascicularis (cynomolgus))
T1 construct: Expressed with a hexahistidine tag or as Fc fusion; also called cynoPD1-ECD; cynoPD-1-ECD
T1 chain: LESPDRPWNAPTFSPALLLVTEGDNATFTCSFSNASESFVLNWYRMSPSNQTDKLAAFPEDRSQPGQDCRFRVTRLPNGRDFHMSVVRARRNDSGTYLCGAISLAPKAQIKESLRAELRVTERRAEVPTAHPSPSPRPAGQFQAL
assay_method_text: SPR ProteOn, cynoPD1-ECD; RANGE high replicate
pKd: −log10 of the molar value.

binder	pKd
PD1B175 (antibody, V domains shown, Tested as IgG2sigma; also called PD1H163/PH9L3) VH: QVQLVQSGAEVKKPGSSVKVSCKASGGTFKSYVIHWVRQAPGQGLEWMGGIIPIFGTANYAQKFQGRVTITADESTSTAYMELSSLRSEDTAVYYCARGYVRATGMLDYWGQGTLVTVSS VL: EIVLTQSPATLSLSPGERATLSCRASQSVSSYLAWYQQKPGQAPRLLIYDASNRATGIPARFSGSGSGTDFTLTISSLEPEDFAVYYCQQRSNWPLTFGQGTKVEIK	7.47
PD1B185 (antibody, human IgG2, kappa, V domains shown, IgG2sigma/kappa; VH 43, VL 55; also called PD1H3/PD1L132) VH: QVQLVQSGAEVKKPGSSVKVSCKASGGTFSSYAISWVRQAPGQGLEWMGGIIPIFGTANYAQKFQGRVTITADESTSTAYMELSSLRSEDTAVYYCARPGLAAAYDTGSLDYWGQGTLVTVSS VL: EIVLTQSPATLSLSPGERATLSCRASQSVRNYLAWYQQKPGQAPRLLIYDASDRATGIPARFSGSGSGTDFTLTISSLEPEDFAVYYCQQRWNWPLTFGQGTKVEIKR	7.47
PD1B160 (antibody, human IgG2, kappa, V domains shown, IgG2sigma/kappa; VH 42, VL 51; also called PD1H131/PD1L101) VH: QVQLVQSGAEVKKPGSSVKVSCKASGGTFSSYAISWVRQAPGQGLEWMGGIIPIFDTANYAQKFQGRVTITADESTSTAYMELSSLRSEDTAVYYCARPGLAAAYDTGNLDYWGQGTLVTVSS VL: EIVLTQSPATLSLSPGERATLSCRASQSVDSYLAWYQQKPGQAPRLLIKDASDRATGIPARFSGSGSGTDFTLTISSLEPEDFAVYYCQQRGNWPLTFGQGTKVEIKR	8.28
PD1B164 (antibody, human IgG2, kappa, V domains shown, IgG2sigma/kappa; VH 42, VL 53; also called PD1H131/PD1L71) VH: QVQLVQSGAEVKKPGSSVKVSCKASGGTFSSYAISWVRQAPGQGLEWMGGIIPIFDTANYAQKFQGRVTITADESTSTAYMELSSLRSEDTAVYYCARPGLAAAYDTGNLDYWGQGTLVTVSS VL: EIVLTQSPATLSLSPGERATLSCRASQSVRSYLAWYQQKPGQAPRLLIYDASYRATGIPARFSGSGSGTDFTLTISSLEPEDFAVYYCQQRDYWPLTFGQGTKVEIKR	8.96
PD1B11 (antibody, V domains shown, Tested as IgG2sigma/kappa; also called PD1H3/PH9L3) VH: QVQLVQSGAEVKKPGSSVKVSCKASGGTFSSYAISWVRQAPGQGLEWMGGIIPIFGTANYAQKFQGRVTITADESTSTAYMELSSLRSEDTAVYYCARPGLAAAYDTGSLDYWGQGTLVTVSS VL: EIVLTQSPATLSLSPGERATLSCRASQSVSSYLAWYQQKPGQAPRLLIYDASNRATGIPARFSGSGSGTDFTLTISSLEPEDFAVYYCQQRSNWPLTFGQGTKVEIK	7.45
